- TEST PROTOCOL: cells
- RUN CONDITIONS: Homo sapiens, QGY7701, 48 h
- Description: Cytotoxicity against human QGY7701 cells after 48 hrs by MTT assay
Let's look at some compounds and their measured IC50.
Entry rule: numbers only, all in µM.

{"MOLECULE SMILES": "COc1ccc(C(=O)c2ccc(=O)n(-c3ccccc3C)c2)c(OCc2cn(Cc3cccc(C)c3)nn2)c1", "IC50, µM": 6.38}

Let us examine a further case.
Task: Look up IC50 for this compound: COc1ccc(C(=O)c2ccc(=O)n(-c3ccccc3C)c2)c(OCc2cn(Cc3ccc(Br)cc3)nn2)c1
Result: 4.99

====

- Tested on: SGC-7901
- TEST PROTOCOL: cells
- RUN CONDITIONS: Homo sapiens, SGC-7901, 48 h
- Description: Cytotoxicity against human SGC7901 cells after 48 hrs by MTT assay
PARAMETER: pIC50
// returns pIC50 (minus log10 of molar concentration), number only

Take a look at these entries with their results.
{"MOLECULE SMILES": "COc1ccc(C(=O)c2ccc(=O)n(-c3ccccc3C)c2)c(OC(=O)Cc2ccc(Cl)cc2)c1", "pIC50": 5.46}
{"MOLECULE SMILES": "COc1ccc(C(=O)c2ccc(=O)n(-c3ccccc3C)c2)c(OCc2cn(Cc3ccccc3)nn2)c1", "pIC50": 5.90}

Let us examine a further case.
Task: Form: Entry = COc1ccc(C(=O)c2ccc(=O)n(-c3ccccc3C)c2)c(OC(=O)c2ccc(Cl)cc2)c1 | System = SGC-7901 | pIC50 = ____
Result: 5.24

====

- TEST PROTOCOL: physchem
- RUN CONDITIONS: octanol/water
- Description: Lipophilicity, log P of the compound
PARAMETER: logP

{"COMPOUND": "COc1ccc(C(=O)c2ccc(=O)n(-c3ccccc3C)c2)c(OC(=O)Cc2ccc(Cl)cc2)c1", "READING": 4.4}

Task: Look up logP for this compound: COc1ccc(C(=O)c2ccc(=O)n(-c3ccccc3C)c2)c(OC(=O)c2ccc(Cl)cc2)c1
Result: 4.27

Task: Look up logP for this compound: CCCCC(CC)C(=O)Oc1cc(OC)ccc1C(=O)c1ccc(=O)n(-c2ccccc2C)c1 (centres undefined)
Result: 5.04

Task: Look up logP for this compound: COc1ccc(C(=O)c2ccc(=O)n(-c3ccccc3C)c2)c(OCc2cn(Cc3ccccc3C#N)nn2)c1
Result: 3.6

Task: Look up logP for this compound: COc1ccc(C(=O)c2ccc(=O)n(-c3ccccc3C)c2)c(OCc2cn(Cc3cccc(Cl)c3)nn2)c1
Result: 4.05

Task: Look up logP for this compound: COc1ccc(C(=O)c2ccc(=O)n(-c3ccccc3C)c2)c(OC(=O)OCc2ccccc2)c1
Result: 4.23

====

Let's look at some compounds and their measured IC50.
- TEST PROTOCOL: cells
- RUN CONDITIONS: Homo sapiens, QGY7701, 48 h

Take a look at these entries with their results.
{"MOLECULE SMILES": "COc1ccc(C(=O)c2ccc(=O)n(-c3ccccc3C)c2)c(OCc2cn(Cc3ccc(C)cc3)nn2)c1", "IC50": "> 30 µM"}
{"MOLECULE SMILES": "CCCOC(=O)Oc1cc(OC)ccc1C(=O)c1ccc(=O)n(-c2ccccc2C)c1", "IC50": "> 30 µM"}

Let us examine a further case.
Task: Look up IC50 for this compound: COc1ccc(Cn2cc(COc3cc(OC)ccc3C(=O)c3ccc(=O)n(-c4ccccc4C)c3)nn2)cc1
Result: > 30 µM

====

- TEST PROTOCOL: physchem
- RUN CONDITIONS: octanol/water
PARAMETER: logP
Output: the number by itself.

{"MOLECULE SMILES": "COc1ccc(C(=O)c2ccc(=O)n(-c3ccccc3C)c2)c(OCc2cn(Cc3ccc(Cl)cc3Cl)nn2)c1", "READING": 4.23}

Task: Look up logP for this molecule: COc1ccc(C(=O)c2ccc(=O)n(-c3ccccc3C)c2)c(OCc2cn(Cc3ccc(F)cc3)nn2)c1
Result: 3.59

Task: Look up logP for this molecule: COc1ccc(Cn2cc(COc3cc(OC)ccc3C(=O)c3ccc(=O)n(-c4ccccc4C)c3)nn2)cc1
Result: 3.79

Task: Look up logP for this molecule: COc1ccc(C(=O)c2ccc(=O)n(-c3ccccc3C)c2)c(OCc2cn(Cc3cccc(O[N+](=O)[O-])c3)nn2)c1
Result: 3.77

Task: Look up logP for this molecule: COc1ccc(C(=O)c2ccc(=O)n(-c3ccccc3C)c2)c(OC(C)=O)c1
Result: 2.7

Task: Look up logP for this molecule: COc1ccc(C(=O)c2ccc(=O)n(-c3ccccc3C)c2)c(OCc2cn(Cc3cccc(Br)c3)nn2)c1
Result: 4.05

====

- TEST PROTOCOL: physchem
- RUN CONDITIONS: octanol/water
Let's look at some compounds and their measured logP.
Output: the number by itself.

Task: Look up logP for this compound: COc1ccc(C(=O)c2ccc(=O)n(-c3ccccc3C)c2)c(OCc2cn(Cc3ccccc3Br)nn2)c1
Result: 4.05

Task: Look up logP for this compound: CCOC(=O)Oc1cc(OC)ccc1C(=O)c1ccc(=O)n(-c2ccccc2C)c1
Result: 2.95

Task: Look up logP for this compound: COc1ccc(C(=O)c2ccc(=O)n(-c3ccccc3C)c2)c(OCc2cn(Cc3ccccc3C)nn2)c1
Result: 4.1
